# ASSAY TEXT: Human HepG2 cell viability assay in 384 well format
# Format: toxicity, cell-based
# Design: dose 125 nL, time 70.5 hour; concentration not given beside the values
# MEASUREMENT CONTEXT: HepG2 cells, read-out: Inhibition
ENDPOINT NAME: cytotoxicity at 70.5 h (%)
All answers are understood in %, so give the number only.

INSERT INTO measurements (compound, uom, result_number) VALUES
  ('Cc1noc(C)c1C(=O)N(Cc1ccsc1)CC1CCCO1 (centres undefined)', '%', 3.1),
  ('COCC(=O)N1CCn2c(Cn3cncn3)cnc2C1C (centres undefined)', '%', -6.96);

So what's the measured cytotoxicity at 70.5 h for this one? O=C(CN1CCCCC1Cn1cncn1)NCCc1ccc(F)cc1 (centres undefined) 32.1

====

Documented cytotoxicity at 70.5 h across a set of molecules
# ASSAY TEXT: Human HepG2 cell viability assay in 384 well format
# Type: toxicity, cell-based
# Parameters: dose 125 nL, time 70.5 hour; concentration not given beside the values
# MEASUREMENT CONTEXT: HepG2 cells, read-out: Inhibition
All answers are understood in %, so give the number only.

Example results:
INSERT INTO results (molecule, uom, result_number) VALUES
  ('OC1CCN(c2nc(-c3ccccc3)no2)CC1', '%', -11.6),
  ('Cc1ccc(-c2n[nH]cc2CNCC2CCS(=O)(=O)C2)o1 (stereo unspecified)', '%', 11.2),
  ('CC(C)N(CCC#N)C(=O)c1cnc(-c2ccc3c(c2)OCO3)s1', '%', -0.296),
  ('O=C(Cn1nc(-c2ccc(F)cc2)oc1=O)NCc1ccccc1F', '%', -5.95),
  ('Cc1noc([C@@H]2C[C@H]3OCC[C@H]3N(C(C)C)C2)n1', '%', 6.58);

Below: the item to evaluate.
So what's the measured cytotoxicity at 70.5 h for this one? `CCN(CCC(=O)OC)C(=O)c1cc(F)cc2[nH]cnc12` 0.0493

====

# ASSAY TEXT: Human HepG2 cell viability assay in 384 well format
# Format: toxicity, cell-based
# Set-up: dose 125 nL, time 70.5 hour; concentration not given beside the values
# MEASUREMENT CONTEXT: HepG2 cells, read-out: Inhibition
ENDPOINT NAME: cytotoxicity at 70.5 h (%)
All answers are understood in %, so give the number only.

Example results:
INSERT INTO assay_data (compound, result_number) VALUES
  ('Cc1ccoc1C(=O)N1CCn2cc(CN3CCCC3)nc2C1', -4.12),
  ('CCc1nc(CN2CCCN(Cc3cnn(C)c3)CC2)no1', 0.0385),
  ('COCC(=O)N1CCCC2(CCN(c3cncnc3)C2=O)C1 (stereo not drawn)', -8.34),
  ('NC(=O)C(NC1CCN(Cc2ccc(F)cc2)CC1)c1ccccc1 (stereo not drawn)', -13.1),
  ('O=C(N1CCCC(n2cncn2)C1)C1(c2ccccc2F)CCCC1 (stereo not drawn)', -5.6);

So what's the measured cytotoxicity at 70.5 h for this one? CN(C)C(C(=O)N1CCCN(C(=O)C2CCC2)CC1)c1ccccc1F (stereo not drawn) -9.38

So what's the measured cytotoxicity at 70.5 h for this one? Cc1nnc(N2CCCC3(CN(Cc4ccc(C)s4)CCO3)C2)o1 (stereo not drawn) -8.9

So what's the measured cytotoxicity at 70.5 h for this one? `CC(C)c1nnc2n1CCN(C(=O)Cc1csc(C(C)(C)C)n1)C2` -8.69

So what's the measured cytotoxicity at 70.5 h for this one? `Cc1nc2sccn2c1CN(CCCN(C)C)Cc1ccco1` -21.2

So what's the measured cytotoxicity at 70.5 h for this one? CCNC(=O)N1CCC2(C1)c1ccccc1S(=O)(=O)N2CCC(C)C (stereo not drawn) -12.9

So what's the measured cytotoxicity at 70.5 h for this one? O=C1N(Cc2ccncc2)CCC12CCCN(c1ncc(F)cn1)C2 (stereo not drawn) 14.6

So what's the measured cytotoxicity at 70.5 h for this one? CCc1nccn1C1CCCN(C(=O)c2csc(NC(C)=O)n2)C1 (stereo not drawn) -16.5

====

# ASSAY TEXT: Human HepG2 cell viability assay in 384 well format
# Type: toxicity, cell-based
# Parameters: dose 125 nL, time 70.5 hour; concentration not given beside the values
# MEASUREMENT CONTEXT: HepG2 cells, read-out: Inhibition
ENDPOINT NAME: cytotoxicity at 70.5 h (%)
All answers are understood in %, so give the number only.

Example results:
INSERT INTO assay_data (molecule, endpoint_name, result_number) VALUES
  ('c1cnn(CCNCc2csc(-c3ccsc3)n2)c1', 'cytotoxicity at 70.5 h', 10.6),
  ('Cn1cccc1C(O)CNC(=O)COc1ccccc1F (stereo not drawn)', 'cytotoxicity at 70.5 h', -8.88),
  ('Cc1cnn(CC2CCCN2Cc2coc(-c3ccccc3)n2)c1 (stereo not drawn)', 'cytotoxicity at 70.5 h', 13.5),
  ('O=C(C1CCC1)N1CCn2c(COc3ncccn3)nnc2C1', 'cytotoxicity at 70.5 h', 1.54),
  ('O=C1CCCN1CCN1CCCCC1Cn1cccn1 (stereo not drawn)', 'cytotoxicity at 70.5 h', -10.6);

So what's the measured cytotoxicity at 70.5 h for this one? `c1ccc([C@@H]2CN(Cc3cccnc3)C[C@H]2c2cc[nH]n2)cc1` -7.07

So what's the measured cytotoxicity at 70.5 h for this one? `CCSCCOC(=O)CCCc1ccc2c(c1)CC(=O)N2` -12.3

So what's the measured cytotoxicity at 70.5 h for this one? `Cc1occc1C(=O)N1CC[C@@H]2[C@@H](CO[C@H]2CNS(C)(=O)=O)C1` -1.5

So what's the measured cytotoxicity at 70.5 h for this one? `CC(C)CN1C[C@H]2C[C@H](C(=O)NCc3cccnc3)[C@@H](C1)O2` 2.54

So what's the measured cytotoxicity at 70.5 h for this one? Cc1nnc(SCCNC(=O)CC2CCc3ccccc32)s1 (stereo not drawn) -4.12

====

Documented cytotoxicity at 70.5 h across a set of compounds
# ASSAY TEXT: Human HepG2 cell viability assay in 384 well format
# Format: toxicity, cell-based
# Set-up: dose 125 nL, time 70.5 hour; concentration not given beside the values
# MEASUREMENT CONTEXT: HepG2 cells, read-out: Inhibition
All answers are understood in %, so give the number only.

So what's the measured cytotoxicity at 70.5 h for this one? `Cc1nccn1-c1cc(CNC(=O)CCNC(=O)OC(C)(C)C)ccn1` -7.58

So what's the measured cytotoxicity at 70.5 h for this one? CC1(C)OCC(CNC(=O)c2cnn(-c3cc(Cl)ccc3Cl)c2N)O1 (stereo unspecified) -5.2

So what's the measured cytotoxicity at 70.5 h for this one? `COCCN1C(=O)CC[C@@H]2[C@@H]1CCN2Cc1c(C)noc1C` -5.73

So what's the measured cytotoxicity at 70.5 h for this one? Cc1cc(NC(=O)C(C)NCCn2cccn2)no1 (stereo unspecified) -0.681

So what's the measured cytotoxicity at 70.5 h for this one? NC(=O)CN1CCCC(c2ccnc(Nc3ncccn3)c2)C1 (stereo unspecified) 18.8

So what's the measured cytotoxicity at 70.5 h for this one? `Cc1nn(C)cc1C(=O)Nc1cccc(CN2CCC(CO)CC2)c1` 60.6

====

# ASSAY TEXT: Human HepG2 cell viability assay in 384 well format
# Assay type: toxicity, cell-based
# Design: dose 125 nL, time 70.5 hour; concentration not given beside the values
# MEASUREMENT CONTEXT: HepG2 cells, read-out: Inhibition
ENDPOINT NAME: cytotoxicity at 70.5 h
Returns: string containing the numeric result and its unit.

Example results:
INSERT INTO measurements (compound, result) VALUES
  ('COc1ccc([C@@H]2CN(C(=O)CCC(F)(F)F)C[C@H]2NC(C)=O)cc1', '-5.27%'),
  ('CCn1cc(CN2CCN(CC(O)c3ccc(C)cc3C)CC2)c(C)n1 (stereo unspecified)', '-6.8%'),
  ('COCCN(Cc1ccc(F)cc1Cl)C(=O)c1ccccn1', '9.84%');

So what's the measured cytotoxicity at 70.5 h for this one? `COCCNc1cc(C)nn2cnnc12` 11.1%

So what's the measured cytotoxicity at 70.5 h for this one? CC(=O)N1CC(c2ncn(C(C)C)n2)c2cc(C(=O)NC3CC3)ccc21 (stereo unspecified) 14.1%

So what's the measured cytotoxicity at 70.5 h for this one? CSc1sc(NC(=O)C2CCCN(C(N)=O)C2)nc1C (stereo unspecified) -13.6%

So what's the measured cytotoxicity at 70.5 h for this one? COc1cccc2c1ccn2CCC(=O)N1CCCC(C(=O)O)C1 (stereo unspecified) 18.7%

So what's the measured cytotoxicity at 70.5 h for this one? `CCN(Cc1noc(C(C)C)n1)Cc1ccc(C#N)cc1F` 27.6%

So what's the measured cytotoxicity at 70.5 h for this one? O=C(c1ccc2ccccc2n1)N1CCC2(CCN2c2ncccn2)C1 (stereo unspecified) 2.64%

So what's the measured cytotoxicity at 70.5 h for this one? `CCS(=O)(=O)N1CCC(Nc2ccc(C#N)cc2F)CC1` -10.9%

So what's the measured cytotoxicity at 70.5 h for this one? `Cc1ccccc1C(=O)N1C[C@@H]2C[C@@H](C)O[C@@H]2C1` -8.1%
